Experiment: Plasma pharmacokinetics, Part A
Type: in vivo, human
Settings: human, plasma, oral, 1200 mg, t 1/2, Median (range), rilzabrutinib 1200 mg single dose
measurement_kind: half-life (h)
The figure you give is taken to be in h; do not add the unit.

Entry under review: CC(C)(/C=C(\C#N)C(=O)N1CCC[C@@H](n2nc(-c3ccc(Oc4ccccc4)cc3F)c3c(N)ncnc32)C1)N1CCN(C2COC2)CC1 [Rilzabrutinib, rilzabrutinib] . Reported half-life?
3.2

---

Assay: Plasma pharmacokinetics, Part B
Conditions: human, in vivo, 400 mg, Cmax, Median (range), 400 mg single dose alone
measurement_kind: Cmax (ng/mL)
The figure you give is taken to be in ng/mL; do not add the unit.

Entry under review: COc1c(N2C[C@@H]3CCCN[C@@H]3C2)c(F)cc2c(=O)c(C(=O)O)cn(C3CC3)c12 [Moxifloxacin, moxifloxacin, reference compound] . Reported Cmax?
2310

Continue with CC(C)(/C=C(\C#N)C(=O)N1CCC[C@@H](n2nc(-c3ccc(Oc4ccccc4)cc3F)c3c(N)ncnc32)C1)N1CCN(C2COC2)CC1
102

---

Assay: Plasma pharmacokinetics, Part A
Assay type: in vivo, human
Settings: human, plasma, oral, 1200 mg, AUC0–last, Median (range), rilzabrutinib 1200 mg single dose
measurement_kind: AUC(0-t) (ng·h/mL)
The figure you give is taken to be in ng·h/mL; do not add the unit.

Entry under review: CC(C)(/C=C(\C#N)C(=O)N1CCC[C@@H](n2nc(-c3ccc(Oc4ccccc4)cc3F)c3c(N)ncnc32)C1)N1CCN(C2COC2)CC1 . Reported AUC(0-t)?
551

---

Experiment: Plasma pharmacokinetics, Part B
Details: human, in vivo, 400 mg, Cmax, range, single moxifloxacin 400 mg dose
measurement_kind: Cmax

Entry under review: COc1c(N2C[C@@H]3CCCN[C@@H]3C2)c(F)cc2c(=O)c(C(=O)O)cn(C3CC3)c12 [Moxifloxacin, moxifloxacin, reference compound] . Reported Cmax?
1230 to 4080 ng/mL

---

Experiment: Plasma pharmacokinetics, Part A
Type: in vivo, human
Details: human, plasma, oral, Cmax, Mean (SD), rilzabrutinib 100 mg + ritonavir 100 mg b.i.d., rilzabrutinib in plasma
measurement_kind: Cmax (ng/mL)
The figure you give is taken to be in ng/mL; do not add the unit.

Entry under review: CC(C)(/C=C(\C#N)C(=O)N1CCC[C@@H](n2nc(-c3ccc(Oc4ccccc4)cc3F)c3c(N)ncnc32)C1)N1CCN(C2COC2)CC1 . Reported Cmax?
223

---

Assay: Plasma pharmacokinetics, Part A
Format: in vivo, human
Conditions: human, plasma, oral, AUC0–last, Median (range), rilzabrutinib 100 mg + ritonavir 100 mg b.i.d., rilzabrutinib in plasma
measurement_kind: AUC(0-t) (ng·h/mL)
The figure you give is taken to be in ng·h/mL; do not add the unit.

Entry under review: CC(C)(/C=C(\C#N)C(=O)N1CCC[C@@H](n2nc(-c3ccc(Oc4ccccc4)cc3F)c3c(N)ncnc32)C1)N1CCN(C2COC2)CC1 [Rilzabrutinib, rilzabrutinib] . Reported AUC(0-t)?
771

---

Assay: Plasma pharmacokinetics, Part A
Type: in vivo, human
Details: human, plasma, oral, Cmax, Median (range), rilzabrutinib 100 mg + ritonavir 100 mg b.i.d., rilzabrutinib in plasma
measurement_kind: Cmax

Entry under review: CC(C)(/C=C(\C#N)C(=O)N1CCC[C@@H](n2nc(-c3ccc(Oc4ccccc4)cc3F)c3c(N)ncnc32)C1)N1CCN(C2COC2)CC1 . Reported Cmax?
157 ng/mL

---

Experiment: Plasma pharmacokinetics, Part B
Conditions: human, in vivo, 400 mg, AUC0–∞, Mean (SD), 400 mg single dose alone
Readings of AUC(0-inf) for the listed molecules
The figure you give is taken to be in ng·h/mL; do not add the unit.

CC(C)(/C=C(\C#N)C(=O)N1CCC[C@@H](n2nc(-c3ccc(Oc4ccccc4)cc3F)c3c(N)ncnc32)C1)N1CCN(C2COC2)CC1	454

Entry under review: COc1c(N2C[C@@H]3CCCN[C@@H]3C2)c(F)cc2c(=O)c(C(=O)O)cn(C3CC3)c12 [Moxifloxacin, moxifloxacin, reference compound] . Reported AUC(0-inf)?
27400

---

Test: Plasma pharmacokinetics, Part B
Conditions: human, in vivo, 400 mg, AUC0–∞, Median (range), 400 mg single dose alone
measurement_kind: AUC(0-inf) (ng·h/mL)
The figure you give is taken to be in ng·h/mL; do not add the unit.

Entry under review: CC(C)(/C=C(\C#N)C(=O)N1CCC[C@@H](n2nc(-c3ccc(Oc4ccccc4)cc3F)c3c(N)ncnc32)C1)N1CCN(C2COC2)CC1 [Rilzabrutinib, rilzabrutinib] . Reported AUC(0-inf)?
312

---

Assay: Plasma pharmacokinetics, Part A
Type: in vivo, human
Details: human, plasma, oral, 1200 mg, Tmax, Mean (SD), rilzabrutinib 1200 mg single dose
measurement_kind: Tmax (h)
The figure you give is taken to be in h; do not add the unit.

Entry under review: CC(C)(/C=C(\C#N)C(=O)N1CCC[C@@H](n2nc(-c3ccc(Oc4ccccc4)cc3F)c3c(N)ncnc32)C1)N1CCN(C2COC2)CC1 . Reported Tmax?
2.9

---

Assay: Plasma pharmacokinetics, Part B
Details: human, in vivo, 400 mg, AUC0–last, Mean (SD), 400 mg single dose alone
measurement_kind: AUC(0-t) (ng·h/mL)
The figure you give is taken to be in ng·h/mL; do not add the unit.

COc1c(N2C[C@@H]3CCCN[C@@H]3C2)c(F)cc2c(=O)c(C(=O)O)cn(C3CC3)c12 [Moxifloxacin, moxifloxacin, reference compound]	22700

Proceed to the following item.
Entry under review: CC(C)(/C=C(\C#N)C(=O)N1CCC[C@@H](n2nc(-c3ccc(Oc4ccccc4)cc3F)c3c(N)ncnc32)C1)N1CCN(C2COC2)CC1 . Reported AUC(0-t)?
455

---

Test: Plasma pharmacokinetics, Part A
Type: in vivo, human
Settings: human, plasma, oral, AUC0–∞, Mean (SD), rilzabrutinib 100 mg + ritonavir 100 mg b.i.d., rilzabrutinib in plasma
measurement_kind: AUC(0-inf) (ng·h/mL)
The figure you give is taken to be in ng·h/mL; do not add the unit.

Entry under review: CC(C)(/C=C(\C#N)C(=O)N1CCC[C@@H](n2nc(-c3ccc(Oc4ccccc4)cc3F)c3c(N)ncnc32)C1)N1CCN(C2COC2)CC1 . Reported AUC(0-inf)?
1100

---

Assay: Plasma pharmacokinetics, Part A
Format: in vivo, human
Details: human, plasma, oral, 1200 mg, AUC0–∞, Median (range), rilzabrutinib 1200 mg single dose
measurement_kind: AUC(0-inf)
Please answer using the number first and the unit second.

Entry under review: CC(C)(/C=C(\C#N)C(=O)N1CCC[C@@H](n2nc(-c3ccc(Oc4ccccc4)cc3F)c3c(N)ncnc32)C1)N1CCN(C2COC2)CC1 [Rilzabrutinib, rilzabrutinib] . Reported AUC(0-inf)?
553 ng·h/mL

---

Experiment: Plasma pharmacokinetics, Part A
Format: in vivo, human
Conditions: human, plasma, oral, 1200 mg, t 1/2, Mean (SD), rilzabrutinib 1200 mg single dose
measurement_kind: half-life

Entry under review: CC(C)(/C=C(\C#N)C(=O)N1CCC[C@@H](n2nc(-c3ccc(Oc4ccccc4)cc3F)c3c(N)ncnc32)C1)N1CCN(C2COC2)CC1 . Reported half-life?
3.1 h

src = paper PMC9199881
